Molecular target: T1, TplEi (Pseudomonas aeruginosa, UniProt Q9I3K3)
T1 sequence: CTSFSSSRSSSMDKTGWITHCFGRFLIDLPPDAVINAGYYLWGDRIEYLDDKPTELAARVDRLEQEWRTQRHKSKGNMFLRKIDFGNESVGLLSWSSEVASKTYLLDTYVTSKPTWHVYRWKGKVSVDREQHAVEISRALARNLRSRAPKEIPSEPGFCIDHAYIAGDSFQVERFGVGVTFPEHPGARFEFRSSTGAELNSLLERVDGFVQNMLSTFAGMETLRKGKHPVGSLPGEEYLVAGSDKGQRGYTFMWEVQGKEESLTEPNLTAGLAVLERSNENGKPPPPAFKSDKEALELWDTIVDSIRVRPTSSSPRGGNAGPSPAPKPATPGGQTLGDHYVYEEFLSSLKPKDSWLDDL
Experiment: ITC
Details: both partners purified
pKd: −log10 of the molar value.

- BINDER: "Ac-DDLFASIGALWTWAWRGPKARQELLKAEQ-NH2 (source: synthetic peptide (solid-phase FMOC, Scilight Biotechnology LLC, HPLC purified)) [B peptides (“L” peptide, TplE 82-108 plus EQ)]"
  pKd: 6.32
